Catalogue of Kd readings, one per entry.
target: human apo-SF-1 LBD (Homo sapiens, UniProt Q13285, C247S/C412S); construct: human SF-1 LBD comprising amino acids 218–461 of human SF-1; 6X-HIS (N, cleaved yes); TEV site (N, cleaved yes); assay: Native gel (electromobility) shift assay of equilibrium phosphoinositide binding to apo-SF-1 LBD; settings: apo-SF-1 LBD 1 μM, 37°C 1 h, 1-site binding model, SEM; read-out: apparent Kd of phosphoinositide binding to SF-1 LBD
Sequence (Q13285 218-461 C247S/C412S): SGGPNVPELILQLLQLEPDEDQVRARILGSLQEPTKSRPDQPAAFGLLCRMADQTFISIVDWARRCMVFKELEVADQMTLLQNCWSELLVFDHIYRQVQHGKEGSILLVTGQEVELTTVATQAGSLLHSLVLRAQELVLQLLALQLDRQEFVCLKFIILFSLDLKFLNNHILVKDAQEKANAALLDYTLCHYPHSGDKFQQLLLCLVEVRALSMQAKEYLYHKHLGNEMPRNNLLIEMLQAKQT
Put down the number, then write its unit next to it.

Please review the entries below; each comes with its answer.
Compound: CCCCCCCCCCCCCCCC(=O)OCC(COP(=O)(O)OC1C(O)C(O)C(OP(=O)(O)O)C(OP(=O)(O)O)C1O)OC(=O)CCCCCCCCCCCCCCC (stereo not drawn)
Kd: 348 nM

Compound: CCCCCCCCCCCCCCCC(=O)OC[C@H](COP(=O)(O)OC1C(O)C(OP(=O)(O)O)C(OP(=O)(O)O)C(OP(=O)(O)O)C1O)OC(=O)CCCCCCCCCCCCCCC (stereo partly drawn)
Kd: 130 nM

Quick check: Kd of CCCCCCCC/C=C\CCCCCCCC(=O)OC[C@H](COP(=O)(O)OC1C(O)C(OP(=O)(O)O)C(OP(=O)(O)O)C(OP(=O)(O)O)C1O)OC(=O)CCCCCCC/C=C\CCCCCCCC (stereo partly drawn) ?
71 nM
